Reference source: patent US20210317204A1

molecular target: T1, human ROR1 extracellular domain-Fc fusion (human, UniProt Q01973 30-406); test: SPR, hROR1 ECD-Fc on chip
T1 construct: extracellular domain; also called hROR1; ROR1-hFc
measurement-type: koff (s⁻¹)

{"binder": "D3 humanised ADV2 (VNAR, also called D3 AD V2) VNAR: TRVDQSPSSLSASVGDRVTITCVLTDTSYGLYSTSWFRKNPGTTDWERMSIGGRYSESVNKGAKSFTLTISSLQPEDSATYYCKAQSGMAISTGSGHGYNWYDGAGTKVEIKQ", "measurement-type": "koff", "reading": 0.00236}
{"binder": "B1 humanised V5 (VNAR, humanised VNAR; also called B1V5) VNAR: ASVDQSPSSLSASVGDRVTITCVVTGANYGLAATYWYRKNPGSSNQERISISGRYSESVNKRTMSFTLTISSLQPEDSATYYCKAYPWGAGAPWLVQWYDGAGTKVEIKQ", "measurement-type": "koff", "reading": "3.85e-05"}
{"binder": "P3A1 G1 dimer (VNAR, humanised VNAR dimer) TRVDQSPSSLSASVGDRVTITCVLTDTSYGLYSTYWYRKNPGSSNKEQISISGRYSESVNKGTKSFTLTISSLQPEDSATYYCRAREARHPWLRQWYDGAGTKVEIKGGGGSGGGGSGGGGSGGGGSGGGGSTRVDQSPSSLSASVGDRVTITCVLTDTSYGLYSTYWYRKNPGSSNKEQISISGRYSESVNKGTKSFTLTISSLQPEDSATYYCRAREARHPWLRQWYDGAGTKVEIKQASGAHHHHHHGAEFEQKLISEEDLG", "measurement-type": "koff", "reading": 0.00147}
{"binder": "P3A1 V1 dimer (VNAR, humanised VNAR dimer) TRVDQSPSSLSASVGDRVTITCVLTDTSYGLYSTSWFRKNPGTTDWERMSIGGRYVESVNKGAKSFTLTISSLQPEDFATYYCKAREARHPWLRQWYDGAGTKVEIKGGGGSGGGGSGGGGSGGGGSGGGGSTRVDQSPSSLSASVGDRVTITCVLTDTSYGLYSTSWFRKNPGTTDWERMSIGGRYVESVNKGAKSFTLTISSLQPEDFATYYCKAREARHPWLRQWYDGAGTKVEIKQASGAHHHHHHGAEFEQKLISEEDLG", "measurement-type": "koff", "reading": 0.000846}
{"binder": "B1 humanised V7 (VNAR, humanised VNAR; also called B1V7) VNAR: ASVDQSPSSASASVGDRLTITCVVTGANYGLAATYWYRKNPGSSNQERISISGRYSESVNKRTMSFTLTISSLQPEDSATYYCKAYPWGAGAPWLVQWYDGAGTKLEVKQ", "measurement-type": "koff", "reading": "5.54e-05"}
{"binder": "P3A1 G2 dimer (VNAR, humanised VNAR dimer) TRVDQSPSSLSASVGDRVTITCVLTDTSYGLYSTYWYRKNPGTTDWERMSIGGRYSESVNKGAKSFTLTISSLQPEDSATYYCRAREARHPWLRQWYDGAGTKVEIKGGGGSGGGGSGGGGSGGGGSGGGGSTRVDQSPSSLSASVGDRVTITCVLTDTSYGLYSTYWYRKNPGTTDWERMSIGGRYSESVNKGAKSFTLTISSLQPEDSATYYCRAREARHPWLRQWYDGAGTKVEIKQASGAHHHHHHGAEFEQKLISEEDLG", "measurement-type": "koff", "reading": 0.00119}

1. B1 G1 (loop-grafted humanised B1) (VNAR, humanised VNAR) VNAR: TRVDQSPSSLSASVGDRVTITCVLTGANYGLASTYWYRKNPGSSNKEQISISGRYSESVNKGTKSFTLTISSLQPEDSATYYCRAYPWGAGAPWLVQWYDGAGTKVEIKQ
2. B1 G2 (loop-grafted humanised B1) (VNAR, humanised VNAR) VNAR: TRVDQSPSSLSASVGDRVTITCVLTGANYGLASTYWYRKNPGSSNQERISISGRYSESVNKRTMSFTLTISSLQPEDSATYYCRAYPWGAGAPWLVQWYDGAGTKVEIKQ
Field: lower recorded koff (choose 1 or 2 ) Respond with the label that goes with your answer.
2
(2: 0.0079 s⁻¹, 1: 0.0162 s⁻¹)
